# TARGET SYSTEM: SARS-CoV-2 M^PRO (Severe acute respiratory syndrome coronavirus 2)
# RUN DESCRIPTION: biochemical
# Assay type: biochemical
# CONDITION PARAMETERS: In vitro potency data; 30 min pre-incubation, 25 nM M^pro, 25 µM substrate; read-out: IC50
pIC50 listing for selected molecules.
# pIC50 = -log10(concentration in molar units)

Give pIC50 for N#Cc1cc(OC(F)(F)F)ccc1N(C(=O)CCl)C(C(=O)NC1CCC(F)(F)CC1)c1cncnc1 (single isomer, unassigned) [INSCoV-517A(1A)]
7.52

---
Give pIC50 for CC(C(=O)NC1CCC(F)(F)CC1)(c1cnccn1)N(C(=O)CCl)c1ccc(-c2ccns2)cc1 (stereo not drawn) [INSCoV-601N]
6.92

Give pIC50 for Cc1ccc(S(=O)(=O)C(C)NC(=O)C(c2cccnc2)N(C(=O)CCl)c2ccc(C(C)(C)C)cc2)cc1 (stereo not drawn)
4.90

Give pIC50 for O=C(NC1CCCCC1)C(c1cccnc1)N(C(=O)CCl)c1ccc(Br)cc1F (stereo not drawn)
5.67

---

# TARGET SYSTEM: SARS-CoV-2 M^PRO (Severe acute respiratory syndrome coronavirus 2, UniProt P0DTD1)
# RUN DESCRIPTION: biochemical
# Assay type: biochemical
# CONDITION PARAMETERS: In vitro potency data; 30 min pre-incubation, 25 nM M^pro, 25 µM substrate; read-out: IC50
pIC50: −log10 of the molar value.
Quick rule: pIC50 of at least 6 means yes (1), below that means no (0).

As a guide, the following entries are already answered.
hey, is pIC50 for this one >= 6? CC(C(=O)NC1CCC(F)(F)CC1)(c1cnccn1)N(C(=O)CCl)c1ccc(-c2ccns2)cc1 (single isomer, unassigned) [INSCoV-601N(1)]
yes (1)

hey, is pIC50 for this one >= 6? O=C(NC1CCC(F)(F)CC1)C(c1cncnc1)N(C(=O)CCl)c1ccc(-c2cnco2)cc1 (centres unmarked) [INSCoV-501I]
yes (1)

hey, is pIC50 for this one >= 6? O=C(NC1CCC(F)(F)CC1)[C@@H](c1cncnc1)N(C(=O)[C@H](F)Cl)c1ccc(-c2ccno2)cc1 (single isomer, unassigned) [INSCoV-614A(1B)]
no (0)

hey, is pIC50 for this one >= 6? O=C(N[C@H]1CCOC1)[C@@H](c1cncnc1)N(C(=O)CCl)c1ccc(-c2cnco2)cc1 [INSCoV-600C(1A)]
yes (1)

hey, is pIC50 for this one >= 6? O=C(NC1CCC(F)(F)CC1)C(c1cncnc1)N(C(=O)CCl)c1ccc(-c2ccno2)cc1 (single isomer, unassigned) [INSCoV-600J(2)]
yes (1)

---
hey, is pIC50 for this one >= 6? N#Cc1cc(OC(F)(F)F)ccc1N(C(=O)CCl)C(C(=O)NC1CCC(F)(F)CC1)c1cncnc1 (centres unmarked) [INSCoV-517A]
yes (1)

hey, is pIC50 for this one >= 6? CC(C)(C)c1ccc(N(C(=O)CCl)C(C(=O)NC2CCCCC2)c2cccnc2)cc1 (single isomer, unassigned) [INSCoV-110A(2)]
no (0)

hey, is pIC50 for this one >= 6? O=C(NC1CCCCC1)C(c1cncnc1)N(C(=O)CCl)c1ccc(-c2cnco2)cc1 (centres unmarked) [INSCoV-501A]
yes (1)

hey, is pIC50 for this one >= 6? O=C(NC1CCC(F)(F)CC1)C(c1cncnc1)N(C(=O)CCl)c1ccc(-c2ccno2)cc1 (single isomer, unassigned) [INSCoV-600J(1)]
yes (1)

hey, is pIC50 for this one >= 6? O=C(NC1CCC(F)(F)CC1)[C@@H](c1cncnc1)N(C(=O)[C@@H](F)Cl)c1ccc(-c2cncs2)cc1 (single isomer, unassigned)
yes (1)

hey, is pIC50 for this one >= 6? Cc1ccc(CN(C(=O)CCl)C(C(=O)NC2CCCCC2)c2cccnc2)cc1 (centres unmarked)
no (0)

hey, is pIC50 for this one >= 6? O=C(N[C@@H]1CCOC1)[C@@H](c1cncnc1)N(C(=O)CCl)c1ccc(-c2cnco2)cc1 [INSCoV-600C(2B)]
yes (1)

hey, is pIC50 for this one >= 6? O=C(NC1CCC(F)(F)CC1)C(c1cncnc1)N(C(=O)CCl)c1ccc(-c2ccncn2)cc1 (centres unmarked) [INSCoV-600L]
yes (1)

hey, is pIC50 for this one >= 6? COc1ccccc1CCN(C(=O)CCl)C(C(=O)NC1CCCCC1)c1cccnc1 (centres unmarked) [INSCoV-560A]
no (0)

hey, is pIC50 for this one >= 6? O=C(NC1CCC(F)(F)CC1)C(c1cncnc1)N(C(=O)CF)c1ccc(-c2cncs2)cc1 (centres unmarked)
no (0)

hey, is pIC50 for this one >= 6? O=C(NC1CCCCC1)C(c1cccnc1)N(CCc1ccccc1Cl)C(=O)CCl (centres unmarked) [INSCoV-503D]
no (0)

hey, is pIC50 for this one >= 6? O=C(NC1CCC(F)(F)C1)C(c1cncnc1)N(C(=O)CCl)c1ccc(-c2cncs2)cc1 (centres unmarked) [INSCoV-601S]
yes (1)

hey, is pIC50 for this one >= 6? O=C(NC1CCC(F)(F)CC1)C(c1ccnnc1)N(C(=O)CCl)c1ccc(-c2cnco2)cc1 (centres unmarked) [INSCoV-537I]
yes (1)

hey, is pIC50 for this one >= 6? O=C(N[C@H]1CCOC1)[C@H](c1cncnc1)N(C(=O)CCl)c1ccc(-c2cnco2)cc1 [INSCoV-600C(1B)]
yes (1)

hey, is pIC50 for this one >= 6? O=C(NC1CCS(=O)(=O)CC1)C(c1cncnc1)N(CCc1cccc(F)c1)C(=O)CCl (centres unmarked) [INSCoV-558A]
yes (1)

hey, is pIC50 for this one >= 6? O=C(NC1CCC(F)(F)CC1)C(c1cncnc1)N(C(=O)C(F)Cl)c1ccc(-c2cncs2)cc1 (centres unmarked)
yes (1)

hey, is pIC50 for this one >= 6? Cc1ccc(S(=O)(=O)CNC(=O)C(c2cncnc2)N(C(=O)CCl)c2ccc(-c3cnco3)cc2)cc1 (centres unmarked) [INSCoV-501D]
no (0)

hey, is pIC50 for this one >= 6? Cc1ccccc1CCN(C(=O)CCl)C(C(=O)NC1CCCCC1)c1cccnc1 (centres unmarked) [INSCoV-503A]
no (0)

hey, is pIC50 for this one >= 6? O=C(NC1CCC(F)(F)CC1)C(c1cncnc1)N(C(=O)CCl)c1ccc(-c2cncs2)cc1 (single isomer, unassigned)
yes (1)

hey, is pIC50 for this one >= 6? O=C(NC1CCC(F)(F)CC1)[C@@H](c1cncnc1)N(C(=O)CCl)c1ccc(-c2ccccc2)cc1 [INSCoV-601L]
yes (1)

hey, is pIC50 for this one >= 6? O=C(NC1CCC(F)(F)CC1)[C@@H](c1cncnc1)N(CCc1cccc(F)c1)C(=O)C1CO1 (some centres unmarked) [INSCoV-600Q(2)]
no (0)

hey, is pIC50 for this one >= 6? O=C(NC1CCC(F)(F)CC1)C(c1ccnnc1)N(C(=O)CCl)c1ccc(-c2ccns2)cc1 (racemic) [INSCoV-601J]
yes (1)
